# Test system: KRAS-mutant PDC multicell tumor spheroid viability;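 note: viability read after seven days of drug exposure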
# methodNotes: Anticancer human tumor 521955-158-R2-J5-PDC patient-derived pancreatic carcinoma cell line growth inhibition [KRAS2]; active = viability on the fitted dose curve at most 10% of control; inactive = the rest
# assaySetup: second compound 3.16 µM; first compound 3.16 µM
Parameter call: string, one of active, inactive

## Input Kindly provide the recorded test outcome for the following compound: CC1COCCN1c1cc(-c2ccnn2C)c2ccnc(-c3ccn[nH]3)c2n1 (stereo not given) + COc1cc2nc(C)nc(NC(C)c3cc(N)cc(C(F)(F)F)c3)c2cc1OC1CCOC1
## Output inactive

## Input Kindly provide the recorded test outcome for the following compound: CC(=O)OC12COC1CC(O)C1(C)C(=O)C(O)C3=C(C)C(OC(=O)C(O)C(NC(=O)OC(C)(C)C)c4ccccc4)CC(O)(C(OC(=O)c4ccccc4)C21)C3(C)C (stereo not given) + C=CC(=O)N1CCN(c2nc(=O)n(-c3c(C)ccnc3C(C)C)c3nc(-c4c(O)cccc4F)c(F)cc23)C(C)C1
## Output inactive

## Input Kindly provide the recorded test outcome for the following compound: COC(=O)c1ccc2c(C(=Nc3ccc(N(C)C(=O)CN4CCN(C)CC4)cc3)c3ccccc3)c(O)[nH]c2c1 + CC1OCC2(CCN(c3cnc(Sc4ccnc(N)c4Cl)c(N)n3)CC2)C1N
## Output inactive

## Input Kindly provide the recorded test outcome for the following compound: CCNC(=O)CC1N=C(c2ccc(Cl)cc2)c2cc(OC)ccc2-n2c(C)nnc21 (stereo not given) + C=CC(=O)N1CCN(c2nc(OCC3CCCN3C)nc3c2CCN(c2cccc4cccc(C)c24)C3)CC1CC#N
## Output inactive

## Input Kindly provide the recorded test outcome for the following compound: COC(=O)c1ccc2c(C(=Nc3ccc(N(C)C(=O)CN4CCN(C)CC4)cc3)c3ccccc3)c(O)[nH]c2c1 + COc1cc2nc(C)nc(NC(C)c3cc(N)cc(C(F)(F)F)c3)c2cc1OC1CCOC1
## Output active

## Input Kindly provide the recorded test outcome for the following compound: CC(=O)OC12COC1CC(O)C1(C)C(=O)C(O)C3=C(C)C(OC(=O)C(O)C(NC(=O)OC(C)(C)C)c4ccccc4)CC(O)(C(OC(=O)c4ccccc4)C21)C3(C)C (stereo not given) + COc1cc2nc(C)nc(NC(C)c3cc(N)cc(C(F)(F)F)c3)c2cc1OC1CCOC1
## Output inactive

## Input Kindly provide the recorded test outcome for the following compound: CC(=O)OC12COC1CC(O)C1(C)C(=O)C(O)C3=C(C)C(OC(=O)C(O)C(NC(=O)OC(C)(C)C)c4ccccc4)CC(O)(C(OC(=O)c4ccccc4)C21)C3(C)C (stereo not given) + C=CC(=O)N1CCN(c2nc(OCC3CCCN3C)nc3c2CCN(c2cccc4cccc(C)c24)C3)CC1CC#N
## Output inactive

## Input Kindly provide the recorded test outcome for the following compound: CC(C)NCC(C(=O)N1CCN(c2ncnc3c2C(C)CC3O)CC1)c1ccc(Cl)cc1 (stereo not given) + CNCc1ccccc1-c1csc(C(C)Nc2nc(C)nc3cc(OC)c(OC)cc23)c1
## Output active

## Input Kindly provide the recorded test outcome for the following compound: CCNC(=O)CC1N=C(c2ccc(Cl)cc2)c2cc(OC)ccc2-n2c(C)nnc21 (stereo not given) + C=CC(=O)N1CCN(c2nc(=O)n(-c3c(C)ccnc3C(C)C)c3nc(-c4c(O)cccc4F)c(F)cc23)C(C)C1
## Output inactive

## Input Kindly provide the recorded test outcome for the following compound: CC1OCC2(CCN(c3cnc(Sc4ccnc(N)c4Cl)c(N)n3)CC2)C1N (stereo not given) + CNCc1ccccc1-c1csc(C(C)Nc2nc(C)nc3cc(OC)c(OC)cc23)c1
## Output active
